What follows is a collection of Ki values obtained with Retinoic acid receptor RXR-gamma (Homo sapiens, UniProt P48443).
Sequence (P48443 whole entry): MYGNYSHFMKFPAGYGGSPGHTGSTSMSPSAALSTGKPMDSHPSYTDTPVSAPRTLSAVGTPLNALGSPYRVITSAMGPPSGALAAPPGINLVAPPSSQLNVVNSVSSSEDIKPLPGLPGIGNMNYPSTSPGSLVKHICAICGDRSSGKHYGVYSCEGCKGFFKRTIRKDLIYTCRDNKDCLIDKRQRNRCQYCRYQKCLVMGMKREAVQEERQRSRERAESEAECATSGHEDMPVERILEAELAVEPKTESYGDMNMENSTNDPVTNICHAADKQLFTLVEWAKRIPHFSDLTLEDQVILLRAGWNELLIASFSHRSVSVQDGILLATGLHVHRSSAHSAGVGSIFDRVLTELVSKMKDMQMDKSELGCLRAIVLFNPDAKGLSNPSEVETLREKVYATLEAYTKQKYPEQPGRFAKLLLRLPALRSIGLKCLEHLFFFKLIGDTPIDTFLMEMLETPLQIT

compound | units | Ki
CC(/C=C/C=C(\C)c1cc(C(C)(C)C)cc(C(C)(C)C)c1)=C\C(=O)O (stereo in doubt; form 2) | nM | 320
CC(/C=C/C=C(\C)c1cc(C(C)(C)C)cc(C(C)(C)C)c1)=C\C(=O)O (stereo in doubt; form 1) | nM | 9.3

---

target: Retinoic acid receptor alpha (Homo sapiens, UniProt P10276); experiment: Transcriptional activation in CV-1 cells expressing Retinoic acid receptor RAR alpha; format: functional, cell-based
Sequence (P10276 whole entry): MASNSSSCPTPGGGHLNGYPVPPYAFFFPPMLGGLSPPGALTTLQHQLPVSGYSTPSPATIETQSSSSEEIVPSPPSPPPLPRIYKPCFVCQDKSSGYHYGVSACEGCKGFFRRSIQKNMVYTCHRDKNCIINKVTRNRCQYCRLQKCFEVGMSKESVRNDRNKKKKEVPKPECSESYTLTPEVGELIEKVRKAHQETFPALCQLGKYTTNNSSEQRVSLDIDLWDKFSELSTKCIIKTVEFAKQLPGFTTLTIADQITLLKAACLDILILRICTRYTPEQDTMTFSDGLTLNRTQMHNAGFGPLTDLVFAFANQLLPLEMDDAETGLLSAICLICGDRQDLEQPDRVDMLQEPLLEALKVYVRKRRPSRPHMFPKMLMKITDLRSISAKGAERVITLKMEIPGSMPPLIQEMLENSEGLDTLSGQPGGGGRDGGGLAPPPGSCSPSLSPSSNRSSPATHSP
readout type: EC50 (nM)

compound | meas value
CC(/C=C/C=C(\C)c1cc(C(C)(C)C)cc(C(C)(C)C)c1)=C\C(=O)O (stereo in doubt; form 1) | 65
